System: MARIMO
ASSAY_REMARKS: cell viability relative to vehicle control; higher = less cytotoxic;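 further: after 48 h exposure read by CellTiter-Glo luminescence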
CONDITION_DESCRIPTION: 10 µM; SRSF2 genotype: SRSF2 P95H/wt
Where a name gives a salt, the structure may show the parent alone.
Response field label takes class 1 when cell viability is strictly below 80% and class 0 in all other cases.

MOLECULE	QUALITATIVE_LABEL
CCN(CC)CCOCCOC(=O)C1(c2ccccc2)CCCC1 [Pentoxyverine Citrate]	class 0
Clc1ccc(C2(c3ccc(-c4cn[nH]c4)cc3)CCNCC2)cc1	class 1
CCC[C@@H]1C[C@@H](C(=O)N[C@@H]([C@H]2O[C@H](SC)[C@H](O)[C@@H](O)[C@H]2O)[C@H](C)Cl)N(C)C1 [Clindamycin]	class 0
CC(C)CC(NC(=O)C(Cc1ccccc1)CC(O)C(Cc1ccccc1)NC(=O)OC(C)(C)C)C(=O)NC(Cc1ccccc1)C(N)=O (configuration not stated)	class 0
COc1ccc([C@@H]2OC[C@H]3[C@@H]2CO[C@@H]3c2ccc3c(c2)OCO3)cc1OC	class 0
CC(=O)OCC(=O)[C@@]1(O)[C@H](C)C[C@H]2[C@@H]3CCC4=CC(=O)C=C[C@]4(C)[C@@]3(F)[C@@H](O)C[C@@]21C [Dexamethasone acetate]	class 0
C=CC(=O)N1CC[C@@H](Oc2nc(Nc3ccc(N4CCC(N5CCN(C)CC5)CC4)cc3)c(C(N)=O)nc2CC)C1	class 1
CC(=O)OCC(=O)NCCCOc1cccc(CN2CCCCC2)c1 [Roxatidine acetate HCl]	class 0
Cc1ccc2oc(=O)ccc2c1	class 0
N=c1ccn2c(n1)O[C@H]1[C@H](O)[C@@H](CO)O[C@H]12 [Cyclocytidine HCl]	class 1
O=C(/C=C/N1C[C@H]2C[C@@H]1CN2c1ccccn1)c1ccccc1O	class 0
CC(C)(C)c1cc(O)c(C(C)(C)C)cc1O	class 1
CCCCOCc1ccc(O)c(OC)c1	class 0
COC(=O)CNC(=O)C(=O)OC	class 0
COC(=O)C1=CO[C@@H](O[C@@H]2O[C@H](CO)[C@@H](O)[C@H](O)[C@H]2O)[C@@H]2C(CO)=CC[C@H]12 [Geniposide]	class 0
Clc1ccc(C(Cn2ccnc2)OCc2c(Cl)cccc2Cl)c(Cl)c1 (configuration not stated) [Isoconazole nitrate (Travogen)]	class 1
O=C(O)c1cc(C(=O)O)c(C(=O)N(Cc2cccc(Oc3ccccc3)c2)[C@H]2CCCc3ccccc32)cc1C(=O)O	class 0

---

System: MARIMO
ASSAY_REMARKS: cell viability relative to vehicle control; higher = less cytotoxic
CONDITION_DESCRIPTION: 10 µM; SRSF2 genotype: SRSF2 wt/wt
Response field label takes true when cell viability is strictly below 80% and false in all other cases.

QUERY_SMILES	QUALITATIVE_LABEL
CO[C@H]1/C=C/O[C@@]2(C)Oc3c(C)c(O)c4c(O)c(c(/C=N/N5CCN(C)CC5)c(O)c4c3C2=O)NC(=O)/C(C)=C\C=C\[C@H](C)[C@H](O)[C@@H](C)[C@@H](O)[C@@H](C)[C@H](OC(C)=O)[C@@H]1C	false
CN(c1ccccc1CNc1nc(Nc2ccc3c(c2)CC(=O)N3)ncc1C(F)(F)F)S(C)(=O)=O	true
O=C(NCCO)c1cccc(-c2cc(Nc3ccc(OC(F)(F)F)cc3)ncn2)c1	true
Nc1nc2c(ncn2[C@@H]2O[C@H](CO)[C@@H](O)[C@H]2O)c(=O)[nH]1	false
O=C(c1ccc(Cl)cc1Cl)n1nnc2ccccc21	true
CNCc1ccc(C)c(NC(=O)c2ccc(Nc3nc(-c4ccccc4)c4ccccc4n3)cc2)c1	true
CC(=O)Cc1cc(=O)c2c(C)cc(O)c([C@@H]3O[C@H](CO)[C@@H](O)[C@H](O)[C@H]3O)c2o1	false
CC(C)(F)C[C@H](N[C@@H](c1ccc(-c2ccc(S(C)(=O)=O)cc2)cc1)C(F)(F)F)C(=O)NC1(C#N)CC1	false

---

Tested on: MOLM14
ASSAY_REMARKS: cell viability relative to vehicle control; higher = less cytotoxic
CONDITION_DESCRIPTION: 10 µM; SRSF2 genotype: SRSF2 P95H/wt

MOLECULE	ENDPOINT_UNIT	cell viability
Cc1cc(C)cc(Oc2ccc(CNC(=O)[C@H](C)N)cc2C)c1	%	78.1
COc1cc(C=O)ccc1OC(C)=O	%	104
C[C@@H](O)[C@H]1C(=O)N2C(C(=O)O)=C(S[C@@H]3CN[C@H](C(=O)Nc4cccc(C(=O)O)c4)C3)[C@H](C)[C@H]12 [Ertapenem sodium]	%	99.6
NS(=O)(=O)Cc1noc2ccccc12 [Zonisamide]	%	91.8
NS(=O)(=O)c1ccc(NC(=O)Nc2ccc(F)cc2)cc1	%	110
Cc1cccc(C)c1N(CC(=O)Nc1ccc(-c2ncon2)cc1)C(=O)C1CCS(=O)(=O)CC1	%	96.4
Cc1cc(CN2CCN(c3c(Br)cnc4nc(-c5ccc(N6CCN(C)CC6)cc5)[nH]c34)CC2)no1	%	0.57
S=C=Nc1cccc(NC(=S)NCCCCNC(=S)Nc2cccc(N=C=S)c2)c1	%	102
C[C@@H]1O[C@@H](O[C@H]2[C@H](O[C@H]3CC[C@@]4(C)[C@@H](CC[C@]5(C)[C@@H]4CC=C4[C@@H]6CC(C)(C)CC[C@]6(C(=O)O[C@@H]6O[C@H](CO[C@@H]7O[C@H](CO)[C@@H](O)[C@H](O)[C@H]7O)[C@@H](O)[C@H](O)[C@H]6O)CC[C@]45C)[C@]3(C)CO)OC[C@H](O)[C@@H]2O)[C@H](O)[C@H](O[C@@H]2O[C@H](CO)[C@@H](O[C@@H]3O[C@H](CO)[C@@H](O)[C@H](O)[C@H]3O)[C@H](O)[C@H]2O)[C@H]1O	%	86

---

Tested on: MARIMO
ASSAY_REMARKS: cell viability relative to vehicle control; higher = less cytotoxic
CONDITION_DESCRIPTION: 10 µM; SRSF2 genotype: SRSF2 P95H/wt

COMPOUND	cell viability (%)
CCCC(CCC)C(=O)O[C@H]1C[C@H]2CC[C@@H](C1)[N+]2(C)C [anisotropine methylbromide]	106
CC1(C)CCC(CN2CCN(c3ccc(C(=O)NS(=O)(=O)c4ccc(NCC5CCOCC5)c([N+](=O)[O-])c4)c(Oc4cnc5[nH]ccc5c4)c3)CC2)=C(c2ccc(Cl)cc2)C1 [Venetoclax (ABT-199, GDC-0199)]	0.58
C#C[C@]1(O)CC[C@H]2[C@@H]3CCc4cc(O)ccc4[C@H]3CC[C@@]21C [Ethinyl Estradiol]	70.1
CC1(C)CC[C@]2(NC(=O)C(C)(F)F)CC[C@]3(C)[C@H](C(=O)C=C4[C@@]5(C)C=C(C#N)C(=O)C(C)(C)[C@@H]5CC[C@]43C)[C@@H]2C1 [Omaveloxolone (RTA-408)]	1.12
Cc1ncc([N+](=O)[O-])n1CC(O)CCl (stereo not drawn) [Ornidazole]	102
Cc1ccc(S(=O)(=O)n2c(N)nc3ccccc32)cc1	102
C[N+]1(C)CCCC1C(=O)[O-] (stereo not drawn) [Stachydrine]	97.3
COc1ccccc1Oc1c(NS(=O)(=O)c2ccc(C(C)(C)C)cc2)nc(-c2ncccn2)nc1OCCO [Bosentan Hydrate]	97.3

---

Test system: MOLM14
ASSAY_REMARKS: cell viability relative to vehicle control; higher = less cytotoxic
CONDITION_DESCRIPTION: 10 µM; SRSF2 genotype: SRSF2 wt/wt
Structures can show the parent of a compound that is named as a salt.
QUANTITY_KIND: cell viability

MOLECULE	OBSERVED_VALUE
NC(=O)c1ccc(I)c([N+](=O)[O-])c1	100%
CC(C)(C)c1cc(NC(=O)Nc2ccc(Oc3ccnc4[nH]c(=O)cnc34)cc2F)n(-c2ccccc2)n1	2.65%
CC(C)(CCCCCC(O)CCCCCC(C)(C)C(=O)O)C(=O)O	104%
CCCOc1ccc2[nH]c(NC(=O)OC)nc2c1	3.24%
CC[C@H]1OC(=O)[C@H](C)[C@@H](O[C@H]2C[C@@](C)(OC)[C@@H](O)[C@H](C)O2)[C@H](C)[C@@H](O[C@@H]2O[C@H](C)C[C@H](N(C)C)[C@H]2O)[C@](C)(O)C[C@@H](C)C(=O)[C@H](C)[C@@H](O)[C@]1(C)O [Erythromycin thiocyanate]	89.1%
Cc1ccc(NC(=O)c2ccc(CN3CCN(C)CC3)cc2)cc1Nc1nc(-c2cccnc2)cs1	67.8%
CCC(CC)(NC(=O)C(C)C)C(=O)N[C@@H](CCCN=C(N)N)C(=O)NC1(C(=O)NC(c2ccc(F)cc2)c2ccc(F)cc2)CCCC1	99.3%
COc1ccc(C[C@@H]2c3cc(Oc4cc(C[C@@H]5c6cc(O)c(OC)cc6CCN5C)ccc4O)c(OC)cc3CCN2C)cc1	1.04%
CC(C)(C)C1CCC(CC2=C(O)c3ccccc3C(=O)C2=O)CC1 (configuration not stated)	42.9%
CN(C)CCCN1c2ccccc2Sc2ccc(Cl)cc21 [Chlorpromazine HCl]	43.7%
CSCC1CN(/N=C/c2ccc([N+](=O)[O-])o2)C(=O)O1 (configuration not stated)	80.1%
CNC[C@H](O)[C@@H](O)[C@H](O)[C@H](O)CO.CNC[C@H](O)[C@@H](O)[C@H](O)[C@H](O)CO.O=C([O-])CN(CCN(CC(=O)[O-])CC(=O)O)CCN(CC(=O)[O-])CC(=O)O.[Gd+3] [Gadopentetate Dimeglumine]	98%
C=C1/C(=C\C=C2/CCC[C@]3(C)[C@@H]([C@H](C)/C=C/[C@H](C)C(C)C)CC[C@@H]23)C[C@@H](O)C[C@@H]1O	70.8%
O=C(Nc1ccc(O)cc1)c1ccccc1O	109%
Cc1cc(C)cc(Oc2ccc(CNC(=O)[C@H](C)N)cc2C)c1	94.3%
Cn1cc(C2=C(c3cn(CCCSC(=N)N)c4ccccc34)C(=O)NC2=O)c2ccccc21 [Ro 31-8220 Mesylate]	-0.01%
COc1cccc(/C=N/N(C(=O)C(F)(F)F)c2ccc(C)cc2C)c1	105%
O=C1CCC(N2C(=O)c3ccccc3C2=O)C(=O)N1 (configuration not stated) [Thalidomide]	86.7%
NCCCCCC(=O)O	105%
NC(=O)c1nc(F)cnc1O	94.8%
O=C(NNc1nc2cc(F)ccc2n2cccc12)c1cnccn1	1.25%
CN1[C@@H]2CC[C@H]1C[C@@H](OC(=O)c1c[nH]c3ccccc13)C2 [Tropisetron HCl]	102%
CC(C)(O)[C@H]1CC[C@@](C)(C2[C@@H](O)C[C@@]3(C)[C@@H]4C[C@H](O)C5C(C)(C)[C@@H](O)CCC56CC46CC[C@]23C)O1 (some centres not stated)	107%
COc1cc(OC)cc(N(CCNC(C)C)c2ccc3ncc(-c4cnn(C)c4)nc3c2)c1	34.9%
CC1(C)CCC2(C(=O)O)CCC3=C(C(CCl)CC4C3(C)CCC3C4(C)CC(O)C(O)C3(C)C(=O)O)C2C1 (configuration not stated)	106%
COC(=O)C1=CO[C@@H](O[C@@H]2O[C@H](CO)[C@@H](O)[C@H](O)[C@H]2O)[C@@H]2C(CO)=CC[C@H]12 [Geniposide]	92.3%
C=C1/C(=C\C=C2/CCC[C@]3(C)[C@@H]([C@H](C)CCCC(C)(C)O)CC[C@@H]23)C[C@@H](O)C[C@@H]1O [Calcitriol (Rocaltrol)]	62.6%
O=C(O)c1ccc(CN2CCC(CN[C@@H]3C[C@H]3c3ccccc3)CC2)cc1	87.2%
COc1cc(C(=O)O)ccc1O	108%
CN1CCN(C(=O)c2ccc(-c3ccc4c(C=O)c(O)ccc4c3)s2)CC1	76.8%
Cc1ccnc2c1NC(=O)c1cccnc1N2C1CC1	0.15%
O=S(=O)(Cl)c1ccc(-c2ccccc2)cc1 [Biphenyl-4-sulfonyl chloride]	105%
